FYI, the data here is from ChEMBL document CHEMBL1157847.

- testProtocol: Antioxidant activity against AAPH-induced DNA damage assessed as TBARS production at 200 uM after 4 hrs relative to control
- Type: functional

{"smilesStr": "O=C(O)c1cnc2ccccc2c1O", "Activity": "103%"}
{"smilesStr": "O=C(O)c1cnc2c(Cl)ccc(Cl)c2c1O", "Activity": "95.4%"}
{"smilesStr": "O=C(O)c1cnc2cc(Cl)ccc2c1O", "Activity": "95%"}
{"smilesStr": "O=C(O)c1cnc2c(Cl)c(Cl)ccc2c1O", "Activity": "97.9%"}
{"smilesStr": "O=C(O)c1cnc2c(Cl)cc(Cl)cc2c1O", "Activity": "99.4%"}
{"smilesStr": "O=C(O)c1cnc2cc(Cl)cc(Cl)c2c1O", "Activity": "98.6%"}
